Study Target: G9a (GST-mG9a) (Mus musculus)
Sequence (Q9Z148 whole entry): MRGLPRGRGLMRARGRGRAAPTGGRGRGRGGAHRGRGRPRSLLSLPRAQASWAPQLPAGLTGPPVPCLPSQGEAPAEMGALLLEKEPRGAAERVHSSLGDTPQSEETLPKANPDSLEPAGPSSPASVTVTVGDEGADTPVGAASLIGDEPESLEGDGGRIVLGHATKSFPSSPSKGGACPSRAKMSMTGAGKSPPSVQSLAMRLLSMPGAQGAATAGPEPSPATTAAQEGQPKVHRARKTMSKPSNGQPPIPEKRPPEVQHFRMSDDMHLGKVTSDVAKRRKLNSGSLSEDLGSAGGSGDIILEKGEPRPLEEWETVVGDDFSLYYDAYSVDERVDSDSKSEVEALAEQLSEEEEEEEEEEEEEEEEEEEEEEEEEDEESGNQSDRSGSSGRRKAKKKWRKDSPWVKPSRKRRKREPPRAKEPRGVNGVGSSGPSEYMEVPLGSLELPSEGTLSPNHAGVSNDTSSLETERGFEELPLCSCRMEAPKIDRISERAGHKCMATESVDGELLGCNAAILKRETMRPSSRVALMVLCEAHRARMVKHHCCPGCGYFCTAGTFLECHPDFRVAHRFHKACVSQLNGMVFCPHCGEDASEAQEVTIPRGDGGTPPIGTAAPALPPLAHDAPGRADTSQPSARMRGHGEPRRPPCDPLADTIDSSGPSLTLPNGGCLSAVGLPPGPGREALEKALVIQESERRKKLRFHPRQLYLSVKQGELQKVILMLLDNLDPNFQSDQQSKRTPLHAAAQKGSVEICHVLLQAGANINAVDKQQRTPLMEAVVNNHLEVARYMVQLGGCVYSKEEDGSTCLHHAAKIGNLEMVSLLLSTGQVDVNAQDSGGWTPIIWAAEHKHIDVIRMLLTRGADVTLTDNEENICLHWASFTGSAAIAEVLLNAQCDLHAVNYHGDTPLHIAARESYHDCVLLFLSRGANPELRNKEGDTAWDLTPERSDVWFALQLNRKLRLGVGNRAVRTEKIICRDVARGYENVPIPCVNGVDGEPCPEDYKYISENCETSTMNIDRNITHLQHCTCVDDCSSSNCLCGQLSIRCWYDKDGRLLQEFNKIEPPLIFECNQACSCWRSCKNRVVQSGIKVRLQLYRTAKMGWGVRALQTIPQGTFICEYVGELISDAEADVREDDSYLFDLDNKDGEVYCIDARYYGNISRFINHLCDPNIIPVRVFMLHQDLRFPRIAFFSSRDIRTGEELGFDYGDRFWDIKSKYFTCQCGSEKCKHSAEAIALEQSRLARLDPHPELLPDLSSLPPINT
Assay Notes: Assay for measuring histone methyltransferase activity using peptidyl MCA, inhibitor evaluation with G9a
Type: biochemical
Test Settings: Example 9; Ac-histone H3 (1-9)-MCA; AMC fluorescence λex 390 nm/λem 460 nm; FIG. 19; read-out: IC50 for G9a
pIC50: −log10 of the molar value.
Observable: pIC50

>>> print(df.to_string())
                                   molecule  value_observed
0  Nc1ncnc2c1ncn2[C@@H]1O[C@H](CSCC[C@H](N)C(=O)O)[C@@H](O)[C@H]1O            3.31
